Some compounds, each annotated with its measured inhibition.
target: Eukaryotic translation initiation factor 2-alpha kinase 3 (Homo sapiens); test: block of dimerizer-induced PERK translation repression, primary screen, PERK inhibitor project, CHO PERK-DD cells, SEAP luminescence, HTS (AID 1416); settings: CHO PERK-DD fusion, SEAP luminescence translation reporter; at 5.6 µM; stronger effect = higher value;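 also: PERK kinase domain activated by AP20187 dimerizer at 100 nM; 0% = DMSO with dimerizer and 100% = rapamycin at 8.4 µM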
Hit rate of the full screen: of about 220,000 compounds, about 370 (0.17%) were called active. The sample holds actives, similar compounds and a random draw of the others, so the mix is not that of the screen.

Worked cases, answers included:
CCOc1ccc(S(=O)(=O)Nc2nccs2)cc1 :: 1.47% (inactive)
Cc1nn(-c2ccccc2)c(-n2cccc2)c1C(=O)O :: 0.88% (inactive)
O=C(O)CCCC(=O)Nc1ccccc1-n1ccnc1 :: 3.15% (active)
COCCNC(=O)CN(C(=O)CCC(=O)Nc1cc(C)on1)c1ccc(C)cc1C :: 3.05% (active)
CN1CCN(c2ccc(NC(=O)c3ccc4c(c3)[nH]c(=O)n4Cc3ccc(F)cc3)cc2)CC1 :: 0.51% (inactive)

Measured inhibition of `C=CCSC(CC)(CC)C(N)=O` : 2.98% (active)

Measured inhibition of `O=C(O)/C=C\C(=O)Nc1ccc(OCc2ccccc2)cc1` : 1.09% (inactive)

Measured inhibition of Cc1cc(NC(=O)CCC(=O)N(CC(=O)NCC2CCCO2)c2ccccc2C)no1 (centres undefined) : 0.7% (inactive)

Measured inhibition of `CCOC(=O)CSc1nc2sc3c(c2c(=O)[nH]1)CC(C)(C)OC3` : 2.96% (active)

Measured inhibition of CC(CC(=O)Nc1ccccc1)n1ccnc1 (centres undefined) : 0.1% (inactive)

Measured inhibition of `Cc1nnc(SCC(=O)NC2CCCC2)s1` : 3.36% (active)

Measured inhibition of `Cc1cc(-c2n[nH]c(=S)n2-c2ccc(C)c(C)c2)no1` : 3.32% (active)

Measured inhibition of CC1CC(=S)Nc2ccccc2N1Cc1ccccc1 (centres undefined) : 0.04% (inactive)

Measured inhibition of `Cc1cccc(C)c1NC(=O)Nc1ccccc1-n1ccnc1` : 1.72% (inactive)

Measured inhibition of `Cc1cnc(NC(=O)CSc2nnc(C)s2)s1` : 1.08% (inactive)

Measured inhibition of `CCOC(=O)Cn1c(SC)nc2sc3c(c2c1=O)CC(C)(C)OC3` : 0.18% (inactive)

Measured inhibition of `CC(=O)Nc1cccc(/C(C)=N/NC(=O)c2c(-c3ccccc3Cl)noc2C)c1` : -0.07% (inactive)

Measured inhibition of CC1=C(C(=O)N(C)C)C(c2ccccc2OC(F)F)NC(=O)N1 (centres undefined) : 1.73% (inactive)

Measured inhibition of COc1ccc(CC(NC(C)=O)C(=O)NC2CCN(C(=O)c3ccc(OC)c(OC)c3)CC2)cc1OC (centres undefined) : 0.49% (inactive)
